The origin of these recorded values is ChEMBL document CHEMBL4190372.

Target protein (sequence): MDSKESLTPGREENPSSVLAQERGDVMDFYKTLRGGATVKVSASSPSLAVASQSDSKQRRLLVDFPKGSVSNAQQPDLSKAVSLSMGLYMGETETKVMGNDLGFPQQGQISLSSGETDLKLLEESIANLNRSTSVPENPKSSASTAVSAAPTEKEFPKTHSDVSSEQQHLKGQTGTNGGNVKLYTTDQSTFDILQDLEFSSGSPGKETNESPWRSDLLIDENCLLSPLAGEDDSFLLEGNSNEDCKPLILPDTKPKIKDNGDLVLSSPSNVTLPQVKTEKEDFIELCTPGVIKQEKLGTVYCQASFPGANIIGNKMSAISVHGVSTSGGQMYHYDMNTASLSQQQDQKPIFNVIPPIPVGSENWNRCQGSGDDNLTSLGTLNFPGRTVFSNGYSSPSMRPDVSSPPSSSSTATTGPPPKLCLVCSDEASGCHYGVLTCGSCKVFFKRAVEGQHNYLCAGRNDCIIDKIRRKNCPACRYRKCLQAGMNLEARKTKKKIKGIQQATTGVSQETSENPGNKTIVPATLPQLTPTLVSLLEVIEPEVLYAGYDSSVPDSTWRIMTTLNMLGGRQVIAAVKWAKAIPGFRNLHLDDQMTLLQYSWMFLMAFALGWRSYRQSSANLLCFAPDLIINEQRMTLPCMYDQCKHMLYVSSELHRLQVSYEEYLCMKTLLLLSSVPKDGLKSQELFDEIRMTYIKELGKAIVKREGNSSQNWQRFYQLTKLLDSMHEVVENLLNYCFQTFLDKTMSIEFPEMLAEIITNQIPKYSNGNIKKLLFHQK
MEASURED_QUANTITY: EC50 (nM)

Illustrative cases are given below, each with its answer.
CC(C)[C@H](NC(=O)C(C)(F)F)[C@H](Oc1ccc2c(cnn2-c2ccc(=O)n(C)c2)c1)c1cccc(Cl)c1
2.9
CC(C)[C@H](NC(=O)C(C)(F)F)[C@H](Oc1ccc2c(cnn2-c2ccc(=O)n(C)c2)c1)c1cc(F)cc(F)c1
2.7
COc1ccc([C@@H](Oc2ccc(C#N)cc2Cl)[C@H](C)NC(=O)C(C)(F)F)cn1
43
CC(C)[C@H](NC(=O)C(C)(F)F)[C@H](Oc1ccc2c(cnn2-c2cnc(=O)n(C)c2)c1)c1ccccc1
87
C[C@H](NC(=O)C(C)(F)F)[C@H](Oc1ccc(C#N)cc1Cl)c1cnc(C2CC2)nc1
21

I. C[C@H](NC(=O)C(F)(F)F)[C@H](Oc1ccc(C#N)cc1Br)c1cnc(C2CC2)nc1
II. CC(C)[C@H](NC(=O)C(C)(F)F)[C@H](Oc1ccc2c(cnn2-c2ccc(F)cc2)c1)c1ccccc1
Ask | Which item exceeds the other in EC50, I or II ? API: response body contains the label of the selected item.
Reply | I
(I: 23 nM, II: 3.9 nM)

1. Cc1ncccc1NC(=O)c1ccc2c(c1)CC[C@@H]1C[C@@](O)(C(F)(F)F)CC[C@@]21Cc1ccccc1 [DAGROCORAT]
2. COc1ccc([C@@H](Oc2ccc3c(cnn3-c3ccc(F)cc3)c2)[C@H](Cc2ccccc2)NC(=O)C(C)(F)F)cn1
Ask | Smaller EC50 value? Options are 1 and 2 API: response body contains the label of the selected item.
Reply | 1
(1: 4.8 nM, 2: 8.7 nM)

1. C[C@H](NC(=O)C(C)(F)F)[C@H](Oc1ccc2c(cnn2-c2ccc(=O)n(C)c2)c1)c1ccccc1
2. CC[C@H](NC(=O)C(F)(F)F)[C@H](Oc1ccc(C#N)cc1Br)c1cnc(C2CC2)nc1
Ask | Smaller EC50 value? Options are 1 and 2 API: response body contains the label of the selected item.
Reply | 1

###

Molecular target: Glucocorticoid receptor (Homo sapiens)
Assay: Antagonist activity at glucocorticoid receptor (unknown origin) expressed in human ChaGoK1 cells assessed as inhibition of dexamethasone induced transactivation incubated for 24 hrs by beta-galactosidase reporter gene assay
Type: cell-based
pIC50: −log10 of the molar value.
MEASURED_QUANTITY: pIC50

CC[C@H](NC(=O)C(F)(F)F)[C@H](Oc1ccc(C#N)cc1Br)c1cnc(C2CC2)nc1
6.25
N#Cc1ccc(O[C@H](c2cnc(C3CC3)nc2)[C@@H](NC(=O)C(F)(F)F)C2CC2)c(Br)c1
6.66
Cc1ncccc1NC(=O)c1ccc2c(c1)CC[C@@H]1C[C@@](O)(C(F)(F)F)CC[C@@]21Cc1ccccc1
8.05
COc1ccc([C@@H](Oc2ccc3c(cnn3-c3ccc(F)cc3)c2)[C@@H](NC(=O)C(C)(F)F)C(C)C)cn1
7.15
CC(C)[C@H](NC(=O)C(C)(F)F)[C@H](Oc1ccc2c(cnn2-c2cc(F)c(=O)n(C)c2)c1)c1ccccc1
6.52

a. CC(C)[C@H](NC(=O)C(C)(F)F)[C@H](Oc1ccc2c(cnn2-c2cscn2)c1)c1ccccc1
b. CC(C)(C)OC[C@H](NC(=O)C(F)(F)F)[C@H](Oc1ccc(C#N)cc1Br)c1cnc(C2CC2)nc1
c. CC(C)[C@H](NC(=O)C(C)(F)F)[C@H](Oc1ccc2c(cnn2-c2ccc(=O)n(C)c2)c1)c1cccc(Cl)c1
d. CC(C)[C@H](NC(=O)C(C)(F)F)[C@H](Oc1ccc2c(cnn2-c2ccc(=O)n(C)c2)c1)c1cc(F)cc(F)c1
Ask | List these items ordered by pIC50, big to small. Output spec: labels arranged per the requested ranking.
Reply | d, a, c, b

a. COc1ccc([C@@H](Oc2ccc3c(cnn3-c3ccc(F)cc3)c2)[C@H](Cc2ccccc2)NC(=O)C(C)(F)F)cn1
b. CC(C)[C@H](NC(=O)C(F)(F)F)[C@H](Oc1ccc2c(cnn2-c2ccc(F)cc2)c1)c1ccccc1
c. CC(C)[C@H](NC(=O)C(C)(F)F)[C@H](Oc1ccc2c(cnn2-c2ccc(F)cc2)c1)c1ccccc1
Ask | Sort the molecules on pIC50; start with the lowest figure. Output spec: labels arranged per the requested ranking.
Reply | a, b, c

1. CC(C)[C@H](NC(=O)C(F)(F)F)[C@H](Oc1ccc2c(cnn2-c2ccc(=O)n(C)c2)c1)c1cccc(Cl)c1
2. Cc1nnc(C(=O)N[C@@H](C(C)O)[C@H](Oc2ccc3c(cnn3-c3ccc(F)cc3)c2)c2cc(F)cc(F)c2)o1 (single isomer, unassigned)
Ask | Which item exceeds the other in pIC50, 1 or 2 ? API: response body contains the label of the selected item.
Reply | 1

###

Biological target: Glucocorticoid receptor (Homo sapiens, UniProt P04150)
Assay: Displacement of fluormone RED from human full length glucocorticoid receptor after 4 hrs by fluorescence polarization assay
MEASURED_QUANTITY: IC50 (nM)

CC(C)[C@H](NC(=O)C(F)(F)F)[C@H](Oc1ccc2c(cnn2-c2ccc(F)cc2)c1)c1ccccc1
16

1. CC(C)[C@H](NC(=O)C(C)(F)F)[C@H](Oc1ccc2c(cnn2-c2ccc(=O)n(C)c2)c1)c1cc(F)cc(F)c1
2. C[C@H](NC(=O)C(C)(F)F)[C@H](Oc1ccc(C#N)cc1Br)c1cnc(C2CC2)nc1
3. N#Cc1ccc(O[C@H](c2cnc(C3CC3)nc2)[C@@H](NC(=O)C(F)(F)F)C2CC2)c(Br)c1
4. CC[C@H](NC(=O)C(F)(F)F)[C@H](Oc1ccc(C#N)cc1Br)c1cnc(C2CC2)nc1
Ask | List these items ordered by IC50, big to small. Output spec: labels arranged per the requested ranking.
Reply | 3, 4, 1, 2

###

Experiment: Ratio of drug level in rat blood to plasma
Type: ADME, cell-free
Conditions: blood and plasma
MEASURED_QUANTITY: blood plasma ratio
Please respond with just the number, no unit label.

Ask | Reported blood plasma ratio for CC(C)[C@H](NC(=O)C(C)(F)F)[C@H](Oc1ccc2c(cnn2-c2ccc(=O)n(C)c2)c1)c1ccccc1 : what is it?
Reply | 0.64

###

Experiment: Volume of distribution at steady state in Han-Wistar rat at 0.8 mg/kg, iv
Assay type: ADME, organism-based
Conditions: in vivo, read-out: Vdss
MEASURED_QUANTITY: Vd (L/kg)
Form entry: value (L/kg) — number only.

Ask | Reported Vd for CC(C)[C@H](NC(=O)C(C)(F)F)[C@H](Oc1ccc2c(cnn2-c2ccc(=O)n(C)c2)c1)c1ccccc1 [MIZACORAT] : what is it?
Reply | 0.66

###

Test: Oral bioavailability in Beagle dog at 0.5 mg/kg
Format: ADME, organism-based, Canis lupus familiaris
Conditions: in vivo
MEASURED_QUANTITY: bioavailability (%)
Form entry: value (%) — number only.

Ask | Reported bioavailability for CC(C)[C@H](NC(=O)C(C)(F)F)[C@H](Oc1ccc2c(cnn2-c2ccc(=O)n(C)c2)c1)c1ccccc1 : what is it?
Reply | 48

###

Target: Glucocorticoid receptor (Homo sapiens, UniProt P04150)
MEASURED_QUANTITY: EC50 (nM)

Illustrative cases are given below, each with its answer.
CC(C)[C@H](NC(=O)C(C)(F)F)[C@H](Oc1ccc2c(cnn2-c2cccn(C)c2=O)c1)c1ccccc1
27
COc1ccc([C@@H](Oc2ccc3c(cnn3-c3ccc(F)cc3)c2)[C@@H](NC(=O)C(C)(F)F)C(C)C)cn1
3.5

P. CC(C)[C@H](NC(=O)C(F)(F)F)[C@H](Oc1ccc2c(cnn2-c2ccc(F)cc2)c1)c1ccccc1
Q. CC(C)[C@H](NC(=O)C(C)(F)F)[C@H](Oc1ccc2c(cnn2-c2cc(C#N)c(=O)n(C)c2)c1)c1ccccc1
R. Cc1nnc(C(=O)N[C@@H](C(C)O)[C@H](Oc2ccc3c(cnn3-c3ccc(F)cc3)c2)c2cc(F)cc(F)c2)o1 (single isomer, unassigned)
S. CC(C)[C@H](NC(=O)C(C)(F)F)[C@H](Oc1ccc2c(cnn2-c2cscn2)c1)c1ccccc1
T. CC(C)[C@H](NC(=O)C(C)(F)F)[C@H](Oc1ccc2c(cnn2-c2ccc(=O)n(C)c2)c1)c1ccccc1
Ask | List these items ordered by EC50, big to small. Output spec: labels arranged per the requested ranking.
Reply | Q, S, T, P, R
(Q: 110 nM, S: 29 nM, T: 11 nM, P: 5.4 nM, R: 3.5 nM)
